- method_description: cAMP Responsive Elements (CRE) small molecule agonists, cell-based qHTS assay: qHTS cell viability counter screen (AID 2060914);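 also: viability read after 3 h of compound exposure; nearly all actives have a fitted effect of over 50% in size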
- run_conditions: CRE-bla HEK293T viability, CellTiter-Glo luminescence, 5 h; series mostly up to 92.4 µM
Records with an inconclusive call do not appear. The source made the active and inactive calls. Calls follow the shape of the dose curve; as a rule, active = well fitted cell-killing curve with a large enough effect in the repeat runs; inconclusive = weak or mixed curves, or effect the other way; inactive = flat fitted curve, though single readings scatter.
Outcomes: T for active, F for inactive

compound	qualitative_label
Brc1ccccc1	F
CC1(C)[C@H](C=C(Cl)Cl)[C@@H]1C(=O)O[C@@H](C#N)c1cccc(Oc2ccccc2)c1	F
O=C1C(I)=CC(=C(c2cc(I)c(O)c(I)c2)c2ccccc2C(=O)O)C=C1I	F
Cc1cc(=O)[nH]o1	F
[O-][Cl+3]([O-])([O-])O	F
O=C(O)CC(O)(CC(=O)O)C(=O)O	F
CC(Cl)CCl (stereo unspecified)	F
OCCSSCCO	F
[Cl][Hg][c]1ccccc1	T
CC(C)(OOC(C)(C)c1ccccc1)c1ccccc1	F
Clc1ccccc1-c1nnc(-c2ccccc2Cl)nn1	F
CCOP(=S)(OCC)Oc1ccc([N+](=O)[O-])cc1	F
Cc1cccc(C)c1NC(=O)CN1CCCC1=O	F
CC1CC(=O)O1 (stereo unspecified)	F
CCNc1nc(NC(C)C)nc(OC)n1	F
Oc1c(Cl)cccc1Cl	F
CCOC1Oc2ccc(OS(C)(=O)=O)cc2C1(C)C (stereo unspecified)	F
CN(C)[C@@H]1C(=O)C(C(N)=O)=C(O)[C@@]2(O)C(=O)C3=C(O)c4c(O)ccc(Cl)c4[C@@](C)(O)[C@H]3C[C@@H]12	F
ClCCCCCCCl	F
CNC(=O)NC(O)C(Cl)(Cl)Cl (stereo unspecified)	F
NCCOS(=O)(=O)O	F
CC(C)N(C(=O)SC/C(Cl)=C/Cl)C(C)C	F
ClCC(Br)CBr (stereo unspecified)	F
C/C(=C\c1ccccc1)[N+](=O)[O-]	F
C=C(C)[C@H]1CN[C@H](C(=O)O)[C@H]1CC(=O)O	F
C#CC(C)(C)O	F
COC[C@@H](NC(C)=O)C(=O)NCc1ccccc1	F
CCOP(=S)(OCC)SCCSCC	F
COP(=O)(OC)OC	F
CCCCCCCCCCCOC(=O)c1ccccc1C(=O)OCCCCCCCCCCC	F
CC(=O)CN(CC(C)=O)N=O	F
CCCCCCCCCC(CC)c1ccc(S(=O)(=O)O)cc1 (stereo unspecified)	F
CCOC(=O)NC(O)C(Cl)(Cl)Cl (stereo unspecified)	F
CC(=O)C(Cl)Cl	F
COc1cccc(C=O)c1	F
Nc1cccc(Cl)c1	F
Clc1ccc(CO/N=C(\Cn2ccnc2)c2ccc(Cl)cc2Cl)c(Cl)c1	F
C[C@H]1CC[C@@H]2[C@@H](C)[C@H]3[C@H](C[C@H]4[C@@H]5CC=C6CC(O[C@@H]7O[C@H](CO)[C@H](O)[C@H](O[C@@H]8O[C@H](CO)[C@@H](O)[C@H](O)[C@H]8O)[C@H]7O[C@H]7O[C@@H](C)[C@H](O)[C@@H](O)[C@H]7O)CC[C@]6(C)[C@H]5CC[C@]34C)N2C1 (stereo partly specified)	F
C[N+]1(CCF)[C@@H]2CC[C@H]1CC(OC(=O)C(O)(c1ccccc1)c1ccccc1)C2 (stereo partly specified)	F
CN(C)C(=S)S	F
CCCCCCBr	F
O=C(N[C@H]1N=C(c2ccccc2F)c2cccc3c2N(CC3)C1=O)c1cc2ccccc2[nH]1	F
CCOP(=S)(OCC)Oc1cc(-c2ccccc2)on1	F
O=C1C=CC(=O)C=C1	F
ClC(Cl)Br	F
COC(=O)C(Cl)C(=O)OC	F
CCCCn1cc[n+](C)c1	F
CCC(=O)O[C@@H]1C=C2CCC3C(CCC4(C)C3CC[C@@H]4OC(=O)CC)C2CC1 (stereo partly specified)	F
ClCBr	F
C=CCC1(C(C)CC)C(=O)NC(=O)NC1=O (stereo unspecified)	F
O=[N+]([O-])c1ccc(Cl)c(Cl)c1	F
CNC(=O)Oc1ccccc1C(C)C	F
O=NN1CCCCCCC1	F
CCOP(=S)(OCC)Oc1cc(Cl)c(Br)cc1Cl	F
N#CN=C(N)N	F
II	F

---

- method_description: cAMP Responsive Elements (CRE) small molecule agonists, cell-based qHTS assay: qHTS cell viability counter screen (AID 2060914);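 also: viability read after 3 h of compound exposure; nearly all actives have a fitted effect of over 50% in size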
- run_conditions: CRE-bla HEK293T viability, CellTiter-Glo luminescence, 5 h; series mostly up to 92.4 µM
Inconclusive results are not listed. Activity calls are given as the source filed them. The call rests on the fitted dose curve; in most records, active means well fitted cell-killing curve with a large enough effect in the repeat runs; inconclusive means weak or mixed curves, or effect the other way; inactive means flat fitted curve, though single readings scatter.
Outcomes: active, inactive

smiles_entry	qualitative_label
Nc1nc(N)nc(Cl)n1	inactive
CCCCCCOC(=O)c1ccccc1C(=O)OCCCCCC	inactive
Cc1ccc([N+](=O)[O-])cc1	inactive
Cc1c([N+](=O)[O-])cc2c(c1[N+](=O)[O-])C(C)(C)CC2(C)C	inactive
Nc1ccncc1	inactive
O=C(CCCN1CCC(n2c(=O)[nH]c3ccccc32)CC1)c1ccc(F)cc1	inactive
CC(C)CC#N	inactive
Cc1cc(Cl)ccc1O[C@H](C)C(=O)O	inactive
COCCC#N	inactive
Cc1ccc(C)c2ccccc12	inactive
C/C=C/CC#N	inactive
CC(=O)[O-].CC(=O)[O-].[Hg+2]	active
O=C1C(=O)c2cccc3cccc1c23	inactive
CCCN(CCC)c1c([N+](=O)[O-])cc(C(C)C)cc1[N+](=O)[O-]	inactive

---

- method_description: cAMP Responsive Elements (CRE) small molecule antagonists, cell-based qHTS assay: qHTS cell viability counter screen (AID 2060913); also: nearly all actives have a fitted effect of over 40% in size
- run_conditions: CRE-bla HEK293T viability, CellTiter-Glo luminescence, 5 h; series mostly up to 92.4 µM
Records with an inconclusive call do not appear. The source made the active and inactive calls. Calls come from the whole dose curve; as a rule, active = well fitted cell-killing curve with a large enough effect in the repeat runs; inconclusive = weak or mixed curves, or effect the other way; inactive = flat fitted curve, though single readings scatter.
Outcomes: Y (active), N (inactive)

compound	qualitative_label
O=C(CCCN1CCC(n2c(=O)[nH]c3ccccc32)CC1)c1ccc(F)cc1	N
O=C(O)c1c(Cl)ccc2cc(Cl)cnc12	N
CCn1cc[n+](C)c1 (tested in a mixture with another compound)	N
CCC(C)(C)c1cc(-n2nc3ccccc3n2)c(O)c(C(C)(C)CC)c1	N
CC1C=[C-]C=C1.[C-]#[O+].[C-]#[O+].[C-]#[O+].[Mn]	N
CCCCN=C=O	N
COc1cc(CC#N)cc(OC)c1OC	N
CCN1CCC2(CC1)COc1cc3c(cc12)N(C(=O)c1ccc(-c2ccc(-c4nnc(C)o4)cc2C)cc1)CC3	Y
CCNC(=O)NC(=O)/C(C#N)=N/OC	N
c1cc(OCC2CO2)ccc1Cc1ccc(OCC2CO2)cc1 (stereo not drawn)	N
O=C(O)c1nc(Cl)ccc1Cl	N
O=C1CCCN1	N
BrCCCCBr	N

---

- method_description: cAMP Responsive Elements (CRE) small molecule agonists, cell-based qHTS assay: qHTS cell viability counter screen (AID 2060914);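 also: viability read after 3 h of compound exposure; nearly all actives have a fitted effect of over 50% in size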
- run_conditions: CRE-bla HEK293T viability, CellTiter-Glo luminescence, 5 h; series mostly up to 92.4 µM
Inconclusive results are not listed. The source made the active and inactive calls. The call rests on the fitted dose curve; in most records, active means well fitted cell-killing curve with a large enough effect in the repeat runs; inconclusive means weak or mixed curves, or effect the other way; inactive means flat fitted curve, though single readings scatter.
Outcomes: TRUE for active, FALSE for inactive

compound	qualitative_label
C[N+](C)(C)C	FALSE
N#CSCc1ccccc1	FALSE
CCC[CH2][Sn]([CH2]CCC)([CH2]CCC)[O]C(=O)c1ccccc1	TRUE
C[N+](C)(C)CC(=O)[O-]	FALSE
C=CCBr	FALSE
O=S1(=O)OCCO1	FALSE
CCOC(=O)c1ccccc1C(=O)OCC	FALSE
CC(C)CBr	FALSE
CCN(C(C)=O)c1cccc(-c2ccnc3c(C#N)cnn23)c1	FALSE
CC(=O)CCC(C)=O	FALSE
CCOP(=S)(OCC)Oc1cnc2ccccc2n1	FALSE
CC(C)(N)Cc1ccccc1Cl	FALSE
C=CCOC(Cn1ccnc1)c1ccc(Cl)cc1Cl (stereo not given)	FALSE
O=[N+]([O-])c1cccc2c([N+](=O)[O-])cccc12	TRUE
ClC(Cl)C(Cl)Cl	FALSE

---

- method_description: cAMP Responsive Elements (CRE) small molecule antagonists, cell-based qHTS assay: qHTS cell viability counter screen (AID 2060913); also: nearly all actives have a fitted effect of over 40% in size
- run_conditions: CRE-bla HEK293T viability, CellTiter-Glo luminescence, 5 h; series mostly up to 92.4 µM
Inconclusive results are not listed. Calls of active or inactive are those of the source. The call rests on the fitted dose curve; in most records, active means well fitted cell-killing curve with a large enough effect in the repeat runs; inconclusive means weak or mixed curves, or effect the other way; inactive means flat fitted curve, though single readings scatter.

compound	outcome
CC1(C)Cc2cccc(O)c2O1	inactive
OCCBr	inactive
ClCc1ccccc1CCl	inactive
O=S(=O)(O)OOS(=O)(=O)O	inactive
Cc1ccc(N)cc1	inactive
Fc1ccc(C2(Cn3cncn3)OC2c2ccccc2Cl)cc1 (stereo not given)	inactive
O=NN1CCCCCC1	inactive
C[C@]12CC[C@H]3[C@@H](CC=C4C[C@@H](O)CC[C@@]43C)[C@@H]1CC[C@@H]2O	inactive
O=c1nc(O)n(Cl)c(=O)n1Cl	inactive
COP(=S)(OC)Oc1cc(Cl)c(Cl)cc1Cl	inactive
CCCCc1c(C)nc(NCC)[nH]c1=O	inactive
CC(C)CBr	inactive
O=[N+]([O-])O	inactive
O=C1CN2CCOC2(c2ccccc2Cl)c2cc(Cl)ccc2N1 (stereo not given)	inactive
COc1cc(Cl)c(OC)cc1Cl	inactive
